- targetOrTestSystem: UniProt Q02750
- assayProtocol: MEK1 binding assay (HTRF, tracer displacement)
- runConditions: read-out: % binding (20 µM)
Each record's class is read off its inhibition at 20 µM using these ranges: lower band = under 20%, central band = from 20% up to 80%, upper band = 80% and over

// known answers, use as guide
CCc1c(Cc2ccccc2)c(=O)oc2cc(OS(=O)(=O)c3ccccc3)ccc12; lower band
CCCC(=O)Oc1ccc2c(CC)c(Cc3ccc(F)cc3)c(=O)oc2c1; upper band
N#Cc1c(C(=O)c2ccccc2)c(=O)oc2cc(O)ccc12 [Compound 87, 3-Benzoyl-4-cyano-7-hydroxycoumarin]; central band
CCCCC(=O)Oc1ccc2c(CC)c(Cc3ccc(F)cc3)c(=O)oc2c1; central band
Cc1c(Cc2ccc(F)cc2)c(=O)oc2cc(OC(=O)c3ccccc3)ccc12; central band

Classify this compound: `CCc1c(Cc2ccc(F)cc2)c(=O)oc2cc(OS(=O)(=O)c3ccc(C)cc3)ccc12` lower band

Given `CCc1c(Cc2ccccc2)c(=O)oc2cc(OC(=O)N(C)C)ccc12` , name the class its inhibition at 20 µM places it in. upper band

Exercise: read the entry `CCc1c(Cc2ccccc2)c(=O)oc2cc(O)ccc12` and state which class it falls under. lower band

---

The entries below come with measured melting point values attached.

Sample records with melting point:
O=c1cc(CO)c2ccc(O)cc2o1; 148 to 149 °C
CCc1c(Cc2ccccc2)c(=O)oc2cc(OC(=O)c3ccccc3)ccc12; 138 °C
CCCCC(=O)Oc1ccc2c(C)c(Cc3ccc(F)cc3)c(=O)oc2c1; 83 to 84 °C

Here's the next entry for you.
What the record says about `CC(=O)Oc1ccc2c(C)c(Cc3ccccc3)c(=O)oc2c1` : melting point is 165 to 166 °C

---

# maps each entry to its inhibition at 2 µM
- targetOrTestSystem: UniProtKB Q02750
- assayProtocol: MEK1 binding assay (HTRF, tracer displacement)
- runConditions: read-out: % binding (2 µM)
- Procedure: The homogeneous time resolved fluorescence (HTRF) assay was performed on a Proxiplate-384 F plus solid back plate (Perkin Elmer, Waltham, MA. USA) with 5 nM GST tagged phosphorylated MEK1 (GST-MEK1), 2 nM europium-labeled anti-GST antibody (Eu-anti-GST), 20 nM kinase tracer 236 and test compound at a variety of concentrations. […] This energy transfer is detected by an increase in the fluorescence emission of the tracer at 665 nm and a decrease in the fluorescence emission of europium at 615 nm. […]
I only need the number, in %, no unit after it.

CCc1c(Cc2ccccc2)c(=O)oc2cc(OC(=O)N(C)C)ccc12; 85
CCCC(=O)Oc1cc2oc(=O)c(Cc3ccccc3)c(C)c2cc1Cl; 21
Cc1c(Cc2ccc(F)cc2)c(=O)oc2cc(OC(=O)C(C)(C)C)ccc12; 23.7

inhibition at 2 µM for `Cc1c(Cc2ccccc2)c(=O)oc2cc(OC(=O)N(C)C)ccc12` is 75.6

# inhibition at 2 µM (compound: `Cc1c(Cc2ccccc2)c(=O)oc2cc(OC(=O)N(C)C)c(Cl)cc12` ) is 66.3

Entry under test: `COc1ccc2cc(C(=O)c3ccccc3)c(=O)oc2c1` . Its inhibition at 2 µM was 7.96

inhibition at 2 µM measured on `CCc1c(Cc2ccc(F)cc2)c(=O)oc2cc(OC(=O)c3ccccc3)ccc12` = 44.6

# inhibition at 2 µM (compound: `Cc1c(Cc2ccccc2)c(=O)oc2cc(OC(=O)C(C)(C)C)ccc12` ) is 14.6

// inhibition at 2 µM value for `Cc1c(Cc2ccc(F)cc2)c(=O)oc2cc(OC(=O)c3ccccc3)ccc12` : 25.8

---

- targetOrTestSystem: phosphorylated MEK1 (Homo sapiens)
- assayProtocol: MEK1 binding assay (HTRF, tracer displacement)
- runConditions: read-out: % binding (20 µM)
observationType: inhibition at 20 µM
Report as: number unit

The compound listed as `CCCc1c(Cc2ccccc2)c(=O)oc2cc(OS(=O)(=O)c3ccc(C)cc3)ccc12` shows inhibition at 20 µM equal to 11.7%

Form: compound = `COc1ccc2cc(C(=O)c3ccccc3)c(=O)oc2c1` ; inhibition at 20 µM = -8.83%

// inhibition at 20 µM lookup, compound = `Cc1c(Cc2ccccc2)c(=O)oc2cc(OS(=O)(=O)c3ccccc3)ccc12` , result: 2.32%

Quick note, inhibition at 20 µM for `CCN(CC)C(=O)Oc1ccc2c(C)c(Cc3ccc(F)cc3)c(=O)oc2c1` landed at 27.8%

Form field inhibition at 20 µM, entry `O=c1cc(CO)c2ccc(O)cc2o1` : 33.6%

Reported inhibition at 20 µM of `CCCc1c(Cc2ccccc2)c(=O)oc2cc(O)ccc12` : 7.06%

// sample `CCC(=O)Oc1ccc2c(C)c(Cc3ccc(F)cc3)c(=O)oc2c1` , its inhibition at 20 µM was 90.8%

The value of inhibition at 20 µM measured for the compound `CCCc1c(Cc2ccc(F)cc2)c(=O)oc2cc(OS(=O)(=O)c3ccccc3)ccc12` turned out to be 13.8%

For record `CCCc1c(Cc2ccc(F)cc2)c(=O)oc2cc(OS(=O)(=O)c3ccc(C)cc3)ccc12` the listed inhibition at 20 µM is 45.9%

---

Entries and their melting point

Examples with answers:
CCCCC(=O)Oc1ccc2c(CCC)c(Cc3ccccc3)c(=O)oc2c1; 78 to 79 °C
CCC(=O)Oc1cc2oc(=O)c(Cc3ccccc3)c(C)c2cc1Cl; 124 to 126 °C
CCC(=O)Oc1ccc2c(CC)c(Cc3ccccc3)c(=O)oc2c1; 124 °C
CCN(CC)C(=O)Oc1ccc2c(C)c(Cc3ccc(F)cc3)c(=O)oc2c1; 101 to 102 °C

melting point recorded for this compound, `CCCC(=O)Oc1ccc2c(CCC)c(Cc3ccccc3)c(=O)oc2c1` , is 105 to 106 °C

---

Catalogue of molecules with associated melting point

For this molecule ( `COc1ccc2c(C#N)c(C(=O)c3ccccc3)c(=O)oc2c1` ), measured melting point is 175 to 176 °C

Summary for this molecule, `CCCC(=O)Oc1ccc2c(C)c(Cc3ccc(F)cc3)c(=O)oc2c1` : melting point is 85 to 86 °C

# molecule `CCCCC(=O)Oc1ccc2c(CC)c(Cc3ccc(F)cc3)c(=O)oc2c1` ; its melting point = 70 to 71 °C

For record `CCc1c(Cc2ccc(F)cc2)c(=O)oc2cc(O)ccc12` the listed melting point is 131 to 132 °C

// `CCCc1c(Cc2ccc(F)cc2)c(=O)oc2cc(OC(=O)C(C)(C)C)ccc12` : melting point value = 138 to 140 °C

melting point reported for this molecule `CCCCC(=O)Oc1ccc2c(CC)c(Cc3ccccc3)c(=O)oc2c1` : 72 to 73 °C

---

Examples of compounds with documented melting point follow.

Cc1c(Cc2ccc(F)cc2)c(=O)oc2cc(OC(=O)c3ccccc3)ccc12 [Compound 66]; 151 to 153 °C

compound CCc1c(Cc2ccccc2)c(=O)oc2cc(OC(=O)C(C)(C)C)ccc12 [Compound 57] , melting point observed: 105 to 106 °C

---

- targetOrTestSystem: phosphorylated MEK1 (Homo sapiens, UniProt Q02750)
- Sequence (Q02750 whole entry): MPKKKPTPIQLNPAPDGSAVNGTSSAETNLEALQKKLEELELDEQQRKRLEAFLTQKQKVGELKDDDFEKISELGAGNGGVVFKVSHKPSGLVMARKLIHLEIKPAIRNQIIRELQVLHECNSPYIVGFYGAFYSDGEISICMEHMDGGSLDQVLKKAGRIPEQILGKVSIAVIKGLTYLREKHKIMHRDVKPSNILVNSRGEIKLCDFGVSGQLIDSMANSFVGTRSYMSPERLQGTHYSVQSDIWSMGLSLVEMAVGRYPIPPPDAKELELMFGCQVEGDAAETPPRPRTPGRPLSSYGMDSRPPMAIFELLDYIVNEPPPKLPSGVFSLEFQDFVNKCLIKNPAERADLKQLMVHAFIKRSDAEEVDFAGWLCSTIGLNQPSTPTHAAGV
- assayProtocol: MEK1 binding assay (HTRF, tracer displacement)
observationType: binding affinity (in words)

Reference set (8 entries):
CCc1c(Cc2ccc(F)cc2)c(=O)oc2cc(OS(=O)(=O)c3ccc(C)cc3)ccc12 [Compound 80]; inactive
CCCCC(=O)Oc1ccc2c(CC)c(Cc3ccc(F)cc3)c(=O)oc2c1 [Compound 52]; inactive
CCc1c(Cc2ccc(F)cc2)c(=O)oc2cc(OC(C)=O)ccc12 [Compound 32]; active
CCCC(=O)Oc1ccc2c(CC)c(Cc3ccc(F)cc3)c(=O)oc2c1 [Compound 46]; active
CCc1c(Cc2ccc(F)cc2)c(=O)oc2cc(OS(=O)(=O)c3ccccc3)ccc12 [Compound 73]; inactive
CCc1c(Cc2ccc(F)cc2)c(=O)oc2cc(OC(=O)N(CC)CC)ccc12 [Compound 25]; active
CCc1c(Cc2ccc(F)cc2)c(=O)oc2cc(OC(=O)c3ccccc3)ccc12 [Compound 67]; inactive
CCc1c(Cc2ccc(F)cc2)c(=O)oc2cc(OC(=O)N(C)C)ccc12 [Compound 18]; active

Query CCc1c(Cc2ccc(F)cc2)c(=O)oc2cc(OC(=O)C(C)(C)C)ccc12 [Compound 59] yields binding affinity (in words) of inactive

response.value for CCC(=O)Oc1ccc2c(CC)c(Cc3ccc(F)cc3)c(=O)oc2c1 [Compound 39] (field: binding affinity (in words)) = active

---

Property: inhibition at 2 µM; scope: individual molecules
- targetOrTestSystem: phosphorylated MEK1 (Homo sapiens)
- assayProtocol: MEK1 binding assay (HTRF, tracer displacement)
- runConditions: read-out: % binding (2 µM)
Field format: number, assumed %, no unit text.

// worked examples, inhibition at 2 µM included
Cc1ccc(S(=O)(=O)Oc2ccc3c(C)c(Cc4ccc(F)cc4)c(=O)oc3c2)cc1; 8.05
COc1ccc2c(C(=O)O)c(C(=O)c3ccccc3)c(=O)oc2c1; 16.5
CCCc1c(Cc2ccccc2)c(=O)oc2cc(OS(=O)(=O)c3ccc(C)cc3)ccc12; 24.6
CCc1c(Cc2ccc(F)cc2)c(=O)oc2cc(OC(=O)C(C)(C)C)ccc12; 45.9
CCCc1c(Cc2ccccc2)c(=O)oc2cc(OC(=O)c3ccccc3)ccc12; 32.6

Alright, here's another molecule for you.
Assay phosphorylated MEK1 (Homo sapiens), sample `COc1ccc2cc(Cc3ccccc3)c(=O)oc2c1` , inhibition at 2 µM read: 23
